Data credit: patent US20190367592A1

molecular target: T1, full-length human Tau (flTau) (human, UniProt P10636-8 1-441); assay: SPR, hybridoma Ab on anti-IgG chip, flTau analyte
T1 construct: range 1-441; bought (SignalChem); also called human Tau-441
T1 sequence (P10636 other isoform, or with tags, fused parts or gaps limits assumed): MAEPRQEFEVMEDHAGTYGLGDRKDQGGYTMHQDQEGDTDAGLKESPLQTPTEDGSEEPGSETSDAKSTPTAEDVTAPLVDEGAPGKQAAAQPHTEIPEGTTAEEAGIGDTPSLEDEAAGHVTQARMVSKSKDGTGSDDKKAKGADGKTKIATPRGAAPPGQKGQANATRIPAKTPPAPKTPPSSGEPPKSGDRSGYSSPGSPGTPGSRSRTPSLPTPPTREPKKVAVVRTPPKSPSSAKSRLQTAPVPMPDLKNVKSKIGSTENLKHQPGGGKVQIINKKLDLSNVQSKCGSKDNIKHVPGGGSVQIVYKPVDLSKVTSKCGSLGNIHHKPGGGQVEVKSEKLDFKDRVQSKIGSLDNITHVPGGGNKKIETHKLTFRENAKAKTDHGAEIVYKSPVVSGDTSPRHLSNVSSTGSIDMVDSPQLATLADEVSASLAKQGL
Reported pKd values for a set of binders
Please report pKd as the negative decimal logarithm of the molar concentration, giving only the number.

Completed entries (count: 6):
Binder	pKd
7A11-C12 (antibody, V domains shown, hybridoma supernatant) VH: QIQLVQSGPDLKKPGETVKISCKASGYTFTNYGMNWVKQAPGKGLKWMGWINTNTGEPTYAEEFKGRFAFSLETSASTAYLQIDNLKNEDTATYFCARGTVSFPYWGQGTLVTVSA VL: DVVMSQTPLSLPVSLGDHASISCRSSQNLVHSDGNTYLHWYLQKPGQSPKLLIYKVSNRFSGVPDRFSGSGSGTDFTLKISRVEAEDLGVYFCSQSTHVIFTFGSGTKLEIK	9.30
19F8-B1 (antibody, V domains shown, hybridoma supernatant) VH: EVQLQQSGPELVKPGASVKMSCKASGYTFTDYYMKWVKQSHGKSLEWIGDLNPNNGGTLYNQKFKGQATLTVDKSSSTAYMQFNSLTSEDSAVYYCARSAGYGDSFAYWGQGTLVTVSA VL: DVLMTQTPLSLPVSLGDQASISCRSSQNIVHSNGNTYLEWYLQKPGQSPKLLIYKVSNRFSGVPDRFSGSGSGTDFTLKISRVEAEDLGIYFCFQGSHVPPTFGGGTKLEIK	8.54
113F5-F7 (antibody, V domains shown, hybridoma supernatant) VH: EVKLEESGGGLVQPGGSMRLSCVASEFTFSNYWMNWIRQSPEKGLEWVAQIRLKSDNYATHYAESVKGRFTISRDASNFSVYLQMNNLRAEDTGIYYCTGGTSYWGQGTTLTVSS VL: DIVMTQSQKIMSTSVGDRVSITCKASQNVGTAVAWYQQRPGHSPKLLIYSASRRFSGVPDRFTGSGSGTDFTLTIINVQSEDLADYFCQQFSTYPYTFGVGTKLEIK	8.62
231G3F10 (antibody, V domains shown) VH: EVRLVESGGGLVQPKGSLKLSCAASGFSFNTYAMNWVRQAPGKGLEWVARIRSKRNNFATYYADSVKDRFTISRDDSKSMLYLQMNNLKTEDTAMYYCVRWGYDDPYAMDYWGQGTSVTVSS VL: NIMMTQSPSSLAVSAGEKVTMSCKSSQSVLYSSNQKNYLAWYQQKPGQSPKLLIYWASARESGVPDRFTGSGSGTDFTLTISSVQAEDLAVYYCHQYFSSFTFGSGTKLEIK	9.70
72E12-H9 (antibody, V domains shown, hybridoma supernatant) VH: EVKLEESGGGLVQPGGSMKLSCVASGFTFSNYWMNWVRQSPEKGLEWVAQIRLKSDNYATHYAESVKGRFTISRDDSKSSVYLQMNNLRAEDTGIYYCAGYFYGGYFDVWGTGTTVTVSS VL: ELVLTQSPTTMAASPGKKITITCSASSSISSNYLHWYQQKPGFSPKLLIYRTSNLASGVPARFSGSGSGTSYSLTIGTMEAEDVATYYCQQGSSLPFTFGSGTKLEIK	8.70
307H3E8 (antibody, V domains shown) VH: EVKFEESGGGLVQPGGSMKLSCVASGFTFSNYWMNWVRQSPEKGLEWVAQIRLKSDNHATHYAESVKGRFTISRDDSKSTVYLQMNNLGAEDTGIYFCTEGGAYFDYWGQGTTLTVSS VL: DVVMTQTPLSLPVSLGDQASISCRSSQNLVHSNGNTYFHWYLQKPGQSPKLLIYKVSNRFSGVPDRFSGSGSGTDFTLKISRVEAEDLGVYVCSQSTHVPPTFGGGTKLEIK	9.00

query: Name the reported pKd value associated with the binder 52F6-F11 (antibody, V domains shown, hybridoma supernatant) VH: QVQLQQSGTELAKPGASVKLSCKASGYTFTHYWMHWIKQRPGQGLEWIGYIYPTNDYTKYNQNFRDKATLTADESSNSAYMQLNSLTYEDSAVYYCARAGNRVFDFWGQGTTLTVSS VL: QAVVTQESALTTSPGETVTLTCRSSTGAVTTSNFANWVQEKPDHLFTGLIGGTNNRAPGVPARFSGSLIGDKAALTITGAQTEDEAIYFCALWYSNLWVFGGGTKLTVL
result: 8.08

query: Try this binder next: 30D12-B5 (antibody, V domains shown, hybridoma supernatant) VH: EVQLQQSGAELVKPGASVKLSCTTSGFNIKDTYMHWVKQRPEQGLEWIGGIDPANGNTKYDPKFQGKATITADTSSNTAYLQLSSLTSEDTAVYYCAHGNFVYWGQGTLVTVSA VL: DVVMTQTPLSLSVTIGQPASISCKSSQSLLYSNGKTYLNWFQQRPGQAPKHLMYQVSKLDPGIPDRFSGSGSETDFTLKISRVEAEDLGVYYCLQGTYYPLTFGAGTNLELK
result: 8.70

query: Try this binder next: 49G10-F4 (antibody, V domains shown, hybridoma supernatant) VH: QVQLQQPGAELVQPGASVKLSCKASGYTFTNYWMQWIKQRPGQGLEWIGEIDPSDSYTNYNQNFKDKATLTVDTSSRTAYMQLSSLTSEDSAVYYCTRRWYINSVRYFDVWGTGTTVTVSA VL: DVLMTQTPLSLSASLGDQASISCRSSQSIVHSNGNIYLEWYLQKPGQSPKLLIYKVSNRFSGVSDRFSGSGSGTDFTLKISRVEAEDLGVYYCFQGAHVPFTFGAGTKLEIK
result: 9.00

query: Try this binder next: 12A10-E8 (antibody, V domains shown, hybridoma supernatant) VH: QIQLVQSGPELKKPGETVKISCKASGYTFTNYGMNWVKQAPGKGLKWMGWINMYTGEPTYGDDFKGRFVFSLETSVSTVYLQINNLKKEDTATFFCARGGRPDYWGQGTSVTVSS VL: DVLMTQTPLSLPVSLGDQASISCRSSQSIVHSNGNTYLEWYLQKPGQSPKLLIYKVFNRFSGVPDRFSGSGSGTDFTLKINRVEAEDLGVYYCLQGSHVPYTFGGGTKLEIK
result: 9.10
